experiment: Human HepG2 cell viability assay in 384 well format; assay type: toxicity, cell-based; parameters: dose 125 nL, time 70.5 hour; concentration not given beside the values; settings: HepG2 cells, read-out: Inhibition
outcome_measure: cytotoxicity at 70.5 h (%)
Number only, in %; omit the unit.

Solved cases below.
molecule: Cc1nc(N)sc1C(=O)N1CCCC(COc2ccc(F)cc2)C1 (stereo unspecified)
outcome_measure: cytotoxicity at 70.5 h
experimental_value: -0.394
--
molecule: Cc1cccc(C)c1CCNC(=O)N1CCCC2(C1)OCCO2
outcome_measure: cytotoxicity at 70.5 h
experimental_value: -5.85
--
molecule: Cc1cccc(C2(C(=O)NC(C)Cn3ccnc3)CC2)c1 (stereo unspecified)
outcome_measure: cytotoxicity at 70.5 h
experimental_value: -8.86
--
molecule: COc1ccc(CN2C[C@@H]3CN(S(=O)(=O)C4CC4)C[C@@H]3C2=O)cc1
outcome_measure: cytotoxicity at 70.5 h
experimental_value: -9.53
--
molecule: CC(NC(=O)N1CCS(=O)(=O)CC1)c1ccc(F)cc1Cl (stereo unspecified)
outcome_measure: cytotoxicity at 70.5 h
experimental_value: -1.2
--
molecule: Cc1noc(C)c1CC(=O)OCC(=O)N1CCc2sccc2C1
outcome_measure: cytotoxicity at 70.5 h
experimental_value: 7.95
--
molecule: C=C(C)COc1ccccc1NC(=O)N1CCOCC1CO (stereo unspecified)
outcome_measure: cytotoxicity at 70.5 h
experimental_value: 7.4
--
molecule: CC(C)n1cnnc1CCNCc1cn(CCC(N)=O)c2ccccc12
outcome_measure: cytotoxicity at 70.5 h
experimental_value: -0.781

Challenge: In one line, give reported cytotoxicity at 70.5 h of the entry "CCN1C(=O)C2(CCOCC2)c2cc(NC(=O)c3cnccn3)ccc21" .
Response given: 1.85

Challenge: Give cytotoxicity at 70.5 h for "O=C(NC1CC1)c1cccc(Oc2ccc3nncn3n2)c1"
Response given: -4.61

Challenge: Name the recorded cytotoxicity at 70.5 h of the item "CCOC(=O)NCc1nn(CCN2CCCC2)c(=O)c2ccccc12" in your answer.
Response given: 1.9
